- target_entity: BACE1 (Homo sapiens)
- Construct: endogenous in cells; host or cells: HEK293 stably transfected with human APP695 wt
- Sequence (P56817 46-501): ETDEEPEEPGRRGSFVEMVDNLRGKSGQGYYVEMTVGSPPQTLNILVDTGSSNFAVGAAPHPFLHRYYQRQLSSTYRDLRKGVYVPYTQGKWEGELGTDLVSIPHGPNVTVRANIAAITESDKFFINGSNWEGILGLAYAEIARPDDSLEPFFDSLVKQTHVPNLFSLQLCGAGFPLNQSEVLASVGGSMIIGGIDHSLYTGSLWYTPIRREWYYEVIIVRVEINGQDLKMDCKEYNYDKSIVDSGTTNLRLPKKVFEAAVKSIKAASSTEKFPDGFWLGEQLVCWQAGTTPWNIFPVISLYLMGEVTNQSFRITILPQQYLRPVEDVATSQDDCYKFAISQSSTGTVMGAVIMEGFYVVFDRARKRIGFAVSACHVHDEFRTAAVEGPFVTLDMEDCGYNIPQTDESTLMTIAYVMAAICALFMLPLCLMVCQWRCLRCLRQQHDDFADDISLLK
- test_name: Cellular Aβ-lowering assay b): HEK293 APP Abeta 40 AlphaLISA Assay
- Type: cell-based
- stated_conditions: assay b): HEK293 APP cells, Aβ 40 in supernatant by AlphaLISA, 18-20 hrs incubation
pIC50: −log10 of the molar value. Counter-ions that a name gives are not always drawn.
Think of 6 as a floor: if pIC50 stands on it or above, it is y; beneath it, n.

Determine whether measured pIC50 meets or exceeds 6 for CC1(C)OCC(N)=N[C@](C)(c2cc(-c3ncc(Cl)cn3)c(F)cc2F)C1(F)F [Example 32]
y

Determine whether measured pIC50 meets or exceeds 6 for CC1(C)OCC(N)=N[C@](C)(c2cc(-c3nc4ccc(C(F)(F)F)cc4o3)c(F)cc2F)C1(F)F [Example 43]
y

Determine whether measured pIC50 meets or exceeds 6 for CC(C)(C)NS(=O)(=O)c1cncc(-c2ccc(F)c([C@@]3(C)N=C(N)COC(C)(C)C3(F)F)c2)c1 [Example 16]
n

Determine whether measured pIC50 meets or exceeds 6 for CC1(C)OCC(N)=N[C@](C)(c2cc(C#Cc3cncc(Cl)c3)ccc2F)C1(F)F [Example 38]
y

Determine whether measured pIC50 meets or exceeds 6 for CC1(C)OCC(N)=N[C@](C)(c2cc(-c3cc(F)cc(Cl)c3)ccc2F)C1(F)F [Example 11, hydrochloride]
y

Determine whether measured pIC50 meets or exceeds 6 for CC1(C)OCC(N)=N[C@](C)(c2cc(-c3nc4cc(Cl)ccc4o3)c(F)cc2F)C1(F)F [Example 41]
y

From: patent US8877744B2
